Could you please report measured growth for the items listed next?
tested on: HCC-2998 colon; assay: NCI-60 one-dose screen, 48 h (100 = growth as untreated, 0 = no growth, -100 = all killed); details: 10 µM unless noted
About 83,000 compounds went through this panel and 20% of them were active in at least one assay; those are over-represented in the sample as a whole.
One number for each entry, in %.

As a guide, the following entries are already answered.
> print(dat)
                                   molecule  endpoint.value
1  N#C/C(=C\c1ccc([N+](=O)[O-])cc1)n1nnc2cc(F)c(F)cc21           -56.2
2  COc1ccc(/C(C)=C(\c2ccc(Cl)cc2)c2ccc(OCCN3CCCCC3)cc2)cc1            91.3
3  CCOc1ccc(-n2nc(C(=O)NCc3ccccc3OC)nc2-c2cc(OC)c(OC)c(OC)c2)cc1            57.5
4  O=C(CN1CCCCCC1)Nc1nc2ccc(NCc3ccc(Cl)cc3)cc2s1             114
5  C=C(c1ccc(OC)c(/C=C/C(=O)c2ccc3c(c2)OCO3)c1)c1cc(OC)c(OC)c(OC)c1            9.86

Could you tell me growth for each of these molecules? They are listed below.
1. Fc1cccc(-c2ccc3c(c2)C2(CCNCC2)CN3)c1
2. NS(=O)(=O)c1ccc(C(=O)NN2C(=O)c3c(Br)c(Br)c(Br)c(Br)c3C2=O)cc1
3. CC(C)(C)n1cc(-c2ccnc(NCCCNS(=O)(=O)c3ccc(C(F)(F)F)cc3)c2)c(-c2cccc(F)c2)n1
4. CC1C(/C=N/NC(N)=S)C(C#N)(C#N)C1(C#N)C#N (stereo not given)
5. CCCn1nc(C(=O)N(C)Cc2ccccc2)c2c1CCC(N1CCc3ccccc31)C2 (stereo not given)
6. COc1cc(/C=C/C(=O)c2ccc(-n3cc(CN4CCN(c5cc6c(cc5F)c(=O)c(C(=O)O)cn6C5CC5)CC4)nn3)cc2)ccc1O

Data returned:
[99.4, 111, 106, 105, 116, 59.3]

Could you tell me growth for each of these molecules? They are listed below.
1. Cc1ccc(CNc2ccc3nc(CCC(C)C)[nH]c3c2)cc1
2. Cc1nc2cc(O)c(O)cc2cc1Oc1ccc(NC(=O)Nc2ccc(Cl)c(Cl)c2)cc1
3. CC(C)(C)n1cc(-c2ccnc(NCCNS(=O)(=O)c3ccc(O)cc3)c2)c(-c2cccc(O)c2)n1
4. CCN1C(=O)N(CC)C2C1NC(=S)N2/N=C/c1ccc(C(F)(F)F)cc1 (stereo not given)
5. Nc1nc2c(c3ncccc13)C(c1cccc(Cl)c1)Cc1ncccc1-2 (stereo not given)
6. O=C(CCSc1nnc2n(Cc3ccccc3)c(=O)c3c4c(sc3n12)CCCC4)N1CCN(c2ccccc2)CC1
7. Cc1ccnc(Nc2ccc([N+](=O)[O-])c(NCCN3CCOCC3)n2)c1
8. COc1ccc(C#Cc2ccc(=O)oc2-c2cc(OC)c(OC)c(OC)c2)cc1O

Data returned:
1. 111
2. 93.4
3. 122
4. 74
5. 34.4
6. 96.5
7. 14.4
8. 9.46

Data request: Under HCC-2998 colon: growth value of Cc1ccccc1Nc1cc(O)c2c(=O)cc(-c3ccccc3)oc2c1 ?
Data returned: 76.7
